From: the supplement of paper PMC6279402

Property: relative viability; scope: individual compounds
# Tested on: A549
# assayName: relative viability (normalised to negative control = 1, bortezomib = 0) (fraction); higher = less cytotoxic
# measurementContext: inflammatory serum-free RHB-A with cytokines + LPS; 5 d + 24 h CellTiter-Blue; compound 30 nM; GSK126 pretreatment: none (vehicle)
Counter-ions that a name gives are not always drawn.
Simply state the number, no unit and no words.

{"columns": ["compound", "relative viability"],
 "data": [
  ["O=P(O)(O)C(O)(Cn1ccnc1)P(=O)(O)O", 0.924],
  ["C[C@]12CC[C@@H]3c4ccc(O)cc4C[C@@H](CCCCCCCCC[S+]([O-])CCCC(F)(F)C(F)(F)F)[C@H]3[C@@H]1CC[C@@H]2O (stereo partly drawn)", 0.836],
  ["COc1cc(Nc2ncc(F)c(Nc3ccc4c(n3)N(COP(=O)(O)O)C(=O)C(C)(C)O4)n2)cc(OC)c1OC", 0.888],
  ["CN(C)Cc1cccc(N=C(c2ccccc2)c2c(O)[nH]c3cc(C(N)=O)ccc23)c1", 0.911],
  ["CC[C@H](CO)Nc1nc(NCc2ccccc2)c2ncn(C(C)C)c2n1", 0.873]
]}

I am curious: what relative viability value has been reported for OCCn1cc(-c2cnc3nnn(Cc4ccc5ncccc5c4)c3n2)cn1 ?
0.985

Now the compound NC(N)=NC(N)=NCCc1ccccc1 [Phenformin hydrochloride]
0.864

Now the compound Cc1ncc(-c2ccnc(Nc3ccc(S(C)(=O)=O)cc3)n2)n1C(C)C
0.854
